Assay: HPLC capacity factor (k') (artificial membrane chromatography)
Format: ADME
Binary call on Log relative k' with cut-off 0.3: strictly below means 1, and equality or higher means 0.

> print(dat)
                         smiles.input  label.class
1    O=C(O)CCCCCCCNC(=O)c1cc(Br)ccc1O            0
2     O=C(O)CCCCCCCNC(=O)c1c(O)cccc1O            0
3  O=C(O)CCCCCCCNC(=O)c1ccc2ccccc2c1O            0
4         COc1ccccc1C(=O)NCCCCCC(=O)O            1
5        Nc1ccccc1C(=O)NCCCCCCCC(=O)O            1
6      O=C(O)CCCCCCCNC(=O)c1cccc(I)c1            0
7    O=C(O)CCCCCCCNC(=O)c1c(F)cccc1Cl            1
8     O=C(O)CCCCCCCNC(=O)c1ccc(O)cc1O            0

Now for another entry.
Dear reviewer, please state whether O=C(O)CCCCCCCNC(=O)c1ccccc1I has Log relative k' strictly beneath 0.3.
0
